- Target Entity: T1, human BTLA(ECD)-HIS (human, UniProt Q7Z6A9 31-157)
- T1 construct: extracellular domain; also called recombinant BTLA; not shown: HIS tag
- Assay Protocol: ELISA, coated BTLA(ECD)-HIS, chemiluminescence (RLU)
Quantity Kind: pEC50
Conceptually, pEC50 converts a concentration in mol/L into minus its log10.

Ask: Please supply the value of reported pEC50 for the item anti-BTLA antibody 12-I8A (antibody, V domains shown, also called 12-IBA) VH: QVQLVESGGGVVQPGRSLRLSCAASGFTFSNYGMHWVRQAPGKGLEWVAVIWYNGSNKYYADSVKGRFTISRDNSKNTLYLQMNSLRAEDTAVYYCARDDVVRYFDWPLDYWGQGTLVTVSS VL: AIQMTQSPSSLSASVGDRVTITCRASQGIRNDLGWYQQKPGKAPKVLIYAASSLQSGVPSRFSGSGSGTDFTLTISSLQPEDFATYYCLQDYNYPWTFGQGTKVEIK
Result: 8.85

Attribution: patent US20200325230A1
